B1: Twister Ribozyme (parent)
chain: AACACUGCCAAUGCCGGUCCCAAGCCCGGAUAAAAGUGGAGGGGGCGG

Variants of: B1
Test: self-cleavage, relative activity (ratio to wild type); higher = more cleavage; co-transcriptional
REPORTED ENDPOINT: self-cleavage

Ask: Entry under review: AACACAGCCAAUGCCGGUCCCAAGCCCGAAUAAAAGUGGAGGGGGCGG [U6A G29A] . Reported self-cleavage?
Result: 0.787

Ask: Record: AACACUGCCAAUGCCGGUCCCAAGACCGGAUGAAAGUGGAGGGGGCGG [C25A A32G]
Result: 0.0602

Ask: Continue with ACCACUGCCAAUGACGGUCCCAAGCCCGGAUAAAAGUGGAGGGGGCGG [A2C C14A]
Result: 0.0856

Ask: Consider next the variant AACACUGCCAAUGCCGGACCCAAGCCCGGAUAAAAUUGGAGGGGGCGG [U18A G36U] in the same way.
Result: 0.172

Ask: Try this variant next: AACACUGCCAAUGCCGAUCCCAAGCCCGGACAAAAGUGGAGGGGGCGG [G17A U31C]
Result: 0.746

Ask: Please do the same for AAAACUGCCAAUGCCGGUACCAAGCCCGGAUAAAAGUGGAGGGGGCGG [C3A C19A] as well.
Result: 0.0415

Ask: Next entry: AACACCGCCCAUGCCGGUCCCAAGCCCGGAUAAAAGUGGAGGGGGCGG [U6C A10C]
Result: 0.772

Ask: Cool, now AACACUGCCAUUGCCGGUCCCAAGCCCGGAUAAAAGUAGAGGGGGCGG [A11U G38A]
Result: 1.16

Ask: Note, next up: AACACUGCCAAUGCCGGUCCAAAGCCCGGAUAAAAGUGGAGGUGGCGG [C21A G43U]
Result: 0.0849

Ask: Queued: AACACUGCCAAUGCUGGUCCCAAACCCGGAUAAAAGUGGAGGGGGCGG [C15U G24A]
Result: 0.1

Ask: Now try ACCACUGCCAAUACCGGUCCCAAGCCCGGAUAAAAGUGGAGGGGGCGG [A2C G13A] .
Result: 0.0468

Ask: Check AAGACUGCCAAUGCCGGUCCCAAGCCCGGAUAAGAGUGGAGGGGGCGG [C3G A34G] too.
Result: 0.235

Ask: Same again, this time with AACACUGCCAAUGCCGGCCCCAAGCCCGGAUACAAGUGGAGGGGGCGG [U18C A33C]
Result: 0.386

Ask: Again, but for AACACUGCCAAUGCCGGUCCCAAGCCCGGAUGAUAGUGGAGGGGGCGG [A32G A34U]
Result: 0.85

Ask: Continue with AACACUUCCAAUCCCGGUCCCAAGCCCGGAUAAAAGUGGAGGGGGCGG [G7U G13C]
Result: 0.0504

Ask: One more variant: AACACUGCCAAUGCCGGUCCCAAGCGCGGAUAAAAGUGGUGGGGGCGG [C26G A40U]
Result: 0.12

Ask: Now the same for AACACUGCCAAUCCCGGUCCCAAGCCCGGAUAAAAGUGGAGGGGGCGC [G13C G48C]
Result: 0.249

Ask: Subsequent entry: AACACGGCCAAUGCCGGUCCCUAGCCCGGAUAAAAGUGGAGGGGGCGG [U6G A22U]
Result: 0.136

Ask: Repeat with AACACUGCCAAUGGCGGUCCCAAGCCCGGAUAACAGUGGAGGGGGCGG [C14G A34C]
Result: 0.0831

Ask: Request: AACACUGCCAAUGCCGGUCCCAAGCCCGGAUAAAUGUGGAGGGGACGG [A35U G45A]
Result: 1.02

Ask: Likewise for AAUACUGCCAAUGCCGGUCCCAAGCCCGGAUAAAAAUGGAGGGGGCGG [C3U G36A] ?
Result: 0.115

Ask: One more variant: AAAACUGCCAAUGCCGGUCCCAAGCCCGGAUAAAAGUGGAGGGGGCGU [C3A G48U]
Result: 0.282
